assay target: B-RAF V600E (Homo sapiens, UniProt P15056, V600E)
Construct: expressed in transfected cells; host or cells: T-Rex 293 cells (Invitrogen #R71007)
Sequence (P15056 whole entry V600E): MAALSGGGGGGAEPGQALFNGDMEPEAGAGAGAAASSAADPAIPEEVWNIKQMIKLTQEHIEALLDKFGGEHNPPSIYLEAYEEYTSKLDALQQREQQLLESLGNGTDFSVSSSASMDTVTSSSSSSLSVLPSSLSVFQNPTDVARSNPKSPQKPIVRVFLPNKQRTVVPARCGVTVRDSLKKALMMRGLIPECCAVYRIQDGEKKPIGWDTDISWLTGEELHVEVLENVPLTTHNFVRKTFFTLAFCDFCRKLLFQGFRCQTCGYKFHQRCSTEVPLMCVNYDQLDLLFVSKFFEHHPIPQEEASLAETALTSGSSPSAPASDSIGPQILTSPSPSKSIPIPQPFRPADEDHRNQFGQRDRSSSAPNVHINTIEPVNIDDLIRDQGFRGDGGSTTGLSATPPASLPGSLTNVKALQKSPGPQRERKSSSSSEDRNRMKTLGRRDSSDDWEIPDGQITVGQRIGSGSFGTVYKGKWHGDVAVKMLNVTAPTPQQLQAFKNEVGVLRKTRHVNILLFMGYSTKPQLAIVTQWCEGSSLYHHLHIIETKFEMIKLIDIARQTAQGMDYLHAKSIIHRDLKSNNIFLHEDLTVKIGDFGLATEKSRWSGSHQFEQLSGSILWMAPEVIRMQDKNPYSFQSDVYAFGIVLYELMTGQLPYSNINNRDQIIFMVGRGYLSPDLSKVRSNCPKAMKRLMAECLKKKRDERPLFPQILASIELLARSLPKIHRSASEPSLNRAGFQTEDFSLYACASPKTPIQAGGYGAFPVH
assay method text: Target protein degradation, assay C: T-Rex 293 cells, HA-BRAF_V600E, 384 well format
Format: cell-based
condition context: Assay C, T-Rex 293 HA-BRAF_V600E cells, 24 hours, Examples 83-269
attribute measured: DC50

I am curious: what DC50 value has been reported for `C[C@H]1CN(CC2CCN(c3ccc4c(c3F)CN([C@H]3CCC(=O)NC3=O)C4=O)CC2)CCN1c1ccc(-n2cnc3ccc(Oc4c(F)ccc(NS(=O)(=O)N5CC[C@@H](F)C5)c4C#N)cc3c2=O)cc1` ?
50 to 500 nM

Name the recorded DC50 for N#Cc1c(NS(=O)(=O)N2CC[C@@H](F)C2)ccc(F)c1Oc1ccc2ncn(-c3ccc(N4CCN(CC5CCN(c6ccc7c(c6)CN(C6CCC(=O)NC6=O)C7=O)CC5)CC4)c(F)c3)c(=O)c2c1 (some centres unmarked) .
5 to 50 nM

# lookup: DC50 of `CN(c1ccc2c(c1)CN([C@@H]1CCC(=O)NC1=O)C2=O)[C@H]1CC[C@H](N2CCN(c3ccc(-n4cnc5ccc(Oc6c(F)ccc(NS(=O)(=O)N7CC[C@@H](F)C7)c6C#N)cc5c4=O)cc3)CC2)CC1`
50 to 500 nM

Param item = `N#Cc1c(NS(=O)(=O)N2CC[C@@H](F)C2)ccc(F)c1Oc1ccc2ncn(-c3ccc(N4CCC(CN5CC(c6ccc7c(c6)CN([C@@H]6CCC(=O)NC6=O)C7=O)C5)CC4)cc3)c(=O)c2c1` ; retrieve measured DC50.
50 to 500 nM

Name the recorded DC50 for N#Cc1c(NS(=O)(=O)N2CC[C@@H](F)C2)ccc(F)c1Oc1ccc2ncn(-c3ccc(N4CCC(COCC5CCN(c6ccc7c(c6)C(=O)N(C6CCC(=O)NC6=O)C7=O)CC5)CC4)nc3)c(=O)c2c1 (some centres unmarked) .
5 to 50 nM

So what's the measured DC50 for this one? `N#Cc1c(NS(=O)(=O)N2CC[C@@H](F)C2)ccc(F)c1Oc1ccc2ncn(-c3ccc(N4CCN(CC5(F)CCN(c6ccc7c(c6)CN([C@H]6CCC(=O)NC6=O)C7=O)CC5)CC4)cc3)c(=O)c2c1`
50 to 500 nM

Entry N#Cc1c(NS(=O)(=O)N2CC[C@@H](F)C2)ccc(F)c1Oc1ccc2ncn(-c3cnc(N4CCN(CCN5CCN(c6ccc7c(c6)CN(C6CCC(=O)NC6=O)C7=O)CC5)CC4)nc3)c(=O)c2c1 (some centres unmarked) : reported DC50 = ?
5 to 50 nM

State the recorded DC50 for this entry: `N#Cc1c(NS(=O)(=O)N2CC[C@@H](F)C2)ccc(F)c1Oc1ccc2ncn(-c3cccc(N4CCN(CC5CN(c6ccc7c(c6)CN([C@H]6CCC(=O)NC6=O)C7=O)C5)CC4)c3)c(=O)c2c1`
50 to 500 nM
